# system_name: T1, 4H993-AA
# T1 chain: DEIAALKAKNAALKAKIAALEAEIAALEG
# measurement_notes: two-hybrid library CCmax;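 further: natural log of median RNA to DNA barcode read ratio; higher means stronger binding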
# applied_conditions: mean of both orientations
Answer each item with its documented interaction score.
Respond using a number only.

// query Which interaction score value belongs to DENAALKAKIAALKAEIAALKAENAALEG [4H1867-AA] ?
// result -1.05

// query Which interaction score value belongs to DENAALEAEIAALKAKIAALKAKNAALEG [4H1135-AA] ?
// result 0.00688

// query Which interaction score value belongs to DEIAALKAENAALEAKIAALEAKIAALKG [4H678-AA] ?
// result 1.05

// query Which interaction score value belongs to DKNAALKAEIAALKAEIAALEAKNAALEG [4H3655-AA] ?
// result -1.32

// query Which interaction score value belongs to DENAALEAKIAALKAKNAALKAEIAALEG [4H1401-AA] ?
// result -1.26

// query Which interaction score value belongs to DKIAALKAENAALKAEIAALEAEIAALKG [4H2754-AA] ?
// result 1.43

// query Which interaction score value belongs to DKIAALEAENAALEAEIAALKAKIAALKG [4H2190-AA] ?
// result 2.17

// query Which interaction score value belongs to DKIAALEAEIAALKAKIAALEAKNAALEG [4H2151-AA] ?
// result -1.43

// query Which interaction score value belongs to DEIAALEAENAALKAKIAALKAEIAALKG [4H234-AA] ?
// result 1.77

// query Which interaction score value belongs to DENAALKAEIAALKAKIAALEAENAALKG [4H1636-AA] ?
// result -1.52

// query Which interaction score value belongs to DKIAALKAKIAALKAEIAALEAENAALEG [4H2883-AA] ?
// result -0.35

// query Which interaction score value belongs to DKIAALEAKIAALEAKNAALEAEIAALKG [4H2354-AA] ?
// result -1.38

// query Which interaction score value belongs to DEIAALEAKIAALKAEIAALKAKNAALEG [4H335-AA] ?
// result -0.48

// query Which interaction score value belongs to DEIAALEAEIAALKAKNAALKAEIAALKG [4H122-AA] ?
// result -1.48

// query Which interaction score value belongs to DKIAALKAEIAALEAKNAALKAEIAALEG [4H2617-AA] ?
// result -0.54

// query Which interaction score value belongs to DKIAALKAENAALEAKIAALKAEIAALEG [4H2729-AA] ?
// result 1.96

// query Which interaction score value belongs to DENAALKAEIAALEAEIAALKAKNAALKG [4H1552-AA] ?
// result -0.53

// query Which interaction score value belongs to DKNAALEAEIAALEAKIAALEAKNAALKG [4H3112-AA] ?
// result -0.58

// query Which interaction score value belongs to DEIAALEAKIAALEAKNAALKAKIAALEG [4H317-AA] ?
// result -1.11

// query Which interaction score value belongs to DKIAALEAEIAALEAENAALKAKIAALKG [4H2078-AA] ?
// result -1.03

// query Which interaction score value belongs to DEIAALKAEIAALKAENAALKAKIAALEG [4H605-AA] ?
// result -1.15

// query Which interaction score value belongs to DEIAALEAEIAALEAKIAALKAKNAALKG [4H48-AA] ?
// result 0.666

// query Which interaction score value belongs to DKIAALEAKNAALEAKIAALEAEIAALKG [4H2466-AA] ?
// result 0.55

// query Which interaction score value belongs to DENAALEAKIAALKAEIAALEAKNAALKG [4H1352-AA] ?
// result -0.427

// query Which interaction score value belongs to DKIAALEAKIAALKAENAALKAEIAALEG [4H2393-AA] ?
// result -1.5

// query Which interaction score value belongs to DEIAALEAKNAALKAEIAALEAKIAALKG [4H454-AA] ?
// result 1.82

// query Which interaction score value belongs to DEIAALKAEIAALEAKNAALEAKIAALKG [4H566-AA] ?
// result 1.6

Reference source for all entries: paper PMC10397247
